Values from patent US9789096B2

- Tested on: HCC95
- Measurement description: Cell viability dose-response, HCC95
- Type: cell-based
- Test context: Homo sapiens, Tables 3 and 4, read-out: IC50 (uM) vs indicated non-small cell lung cancer cell line HCC95
Readout label: IC50 (µM)
Respond numerically; units are µM and should not be typed.

Some compounds with recorded IC50:
COc1ccc2sc(NC(=O)c3ccc([N+](=O)[O-])cc3)nc2c1; 0.2
O=C(Nc1ccc(F)c(Cl)c1)c1sc2ccccc2c1Cl; 300

What IC50 value was documented for this compound, `NC(=O)c1c(NC(=O)COc2ccccc2)sc2c1CCCC2` ?
28.5

Further, for `O=C(Nc1nc2ccc(F)cc2s1)c1sc2ccccc2c1Cl` ?
32.4

* * *

Each entry below lists one item and its recorded IC50 value.
- Tested on: H460
- Measurement description: Cell viability dose-response, H460
- Type: cell-based
- Test context: Homo sapiens, NCI-H460; 12-point dose-response starting at 50 micromolar, 3-fold increments, in duplicate; read-out: toxicity data, H460
Respond numerically; units are µM and should not be typed.

Some compounds with recorded IC50:
COc1ccc(CCNC(=O)C(=O)Nc2cccc(Cl)c2)cc1; 3.9
COc1ccc(CCNC(=O)C(=O)Nc2cccc(Br)c2)cc1; 50
COc1ccc(CCNC(=O)C(=O)Nc2ccc(Cl)cc2)cc1; 1.34

// switching to the query compound
What IC50 value was documented for this compound, `COc1ccc(CCNC(=O)C(=O)Nc2ccc(C)c(C)c2)cc1` ?
1.31

* * *

Each entry below lists one item and its recorded log10 IC50 value.
- System: H2122
- Measurement description: Cell viability dose-response, H2122
- Type: cell-based, human
- Test context: Homo sapiens, NCI-H2122, Tables 3 and 4; read-out: IC50 (uM) vs indicated non-small cell lung cancer cell line H2122
// units: µM (pre-log); metric: IC50; scale: log10

COc1ccc2nc(NC(=O)c3ccc(F)cc3)sc2c1; -0.05
CCOC(=O)c1c(NC(=O)c2ccc([N+](=O)[O-])cc2)sc2c1CCCC2; 0.77

What log10 IC50 value was documented for this compound, `O=C(Nc1cccc(F)c1)c1sc2ccccc2c1Cl` ?
0.28

Further, for `COc1ccc2nc(NC(=O)c3ccc(C(=O)c4ccccn4)cc3)sc2c1` ?
-1.80

Further, for `COc1ccc2nc(NC(=O)c3cccc(C)c3)sc2c1` ?
0.06

* * *

Each entry below lists one item and its recorded IC50 value.
- Test system: H1993
- Measurement description: Cell viability dose-response, H1993
- Assay type: cell-based
- Test context: Homo sapiens, NCI-H1993; Tables 3 and 4; read-out: IC50 (uM) vs indicated non-small cell lung cancer cell line H1993

Some compounds with recorded IC50:
NC(=O)c1c(NC(=O)c2sc3ccccc3c2Cl)sc2c1CCCCC2 [SW155113]; 8.1 µM
O=C(Nc1nc2ccc(F)cc2s1)c1sc2ccccc2c1Cl [SW147703]; 13.5 µM
O=C(Nc1nc2ccc(O)cc2s1)c1c(F)ccc(O)c1F [SW202860-1]; 35.6 µM
O=C(Nc1nc2ccccc2s1)c1ccc(-c2ccccc2)cc1 [SW001811]; 85 µM
COc1ccccc1NC(=O)c1sc2ccccc2c1Cl [SW004989]; > 5 µM
COc1ccc2nc(NC(=O)c3cccnc3)sc2c1 [SW202774-1]; 25.5 µM

What IC50 value was documented for this compound, O=C(c1ccccc1)c1ccc(NC(=O)c2sc3ccccc3c2Cl)cc1 [SW025780] ?
31 µM

Further, for O=C(Nc1cccc(NC(=O)c2sc3ccccc3c2Cl)c1)c1cccc(Cl)c1 [SW023441] ?
11 µM

Further, for O=C(Nc1nc2c(s1)CCCC2)c1ccccc1Oc1ccccc1 [SW045964] ?
55.9 µM

Further, for COc1ccc2nc(NC(=O)c3ccc(C(=O)c4ccccc4)cc3)sc2c1 [SW202857-1] ?
21.3 µM
